studySystem: UniProtKB P30542
Sequence (whole entry): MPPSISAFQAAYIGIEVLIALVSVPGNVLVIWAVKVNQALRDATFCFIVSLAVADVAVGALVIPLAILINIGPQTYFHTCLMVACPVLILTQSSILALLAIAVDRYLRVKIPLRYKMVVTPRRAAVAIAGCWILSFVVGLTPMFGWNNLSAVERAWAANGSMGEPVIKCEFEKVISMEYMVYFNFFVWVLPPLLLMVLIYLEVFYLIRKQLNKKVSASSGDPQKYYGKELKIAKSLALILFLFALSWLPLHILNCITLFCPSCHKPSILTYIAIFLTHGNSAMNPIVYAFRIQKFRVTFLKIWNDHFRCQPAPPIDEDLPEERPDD
testDetails: Dissociation of [3H]CCPA from Adenosine A1 receptor in CHO cells at 10 uM as percent K-1
Assay type: cell-based
Param label: returns t when K-1 decrease < 30%, returns f otherwise, including exact equality.

substanceSmiles | categoryLabel
Nc1sc2c(c1C(=O)c1ccc(I)c3ccccc13)CCCC2 | f
Cc1sc(N)c(C(=O)c2cccc3ccccc23)c1C | f
Nc1sc2c(c1C(=O)c1ccc(Cl)c3ccccc13)CCCC2 | t
Nc1sc2c(c1C(=O)c1ccc3ccccc3c1)CCC2 | t

Read the next record carefully.
For this compound, is K-1 decrease lower than 30%? Nc1sc2c(c1C(=O)c1cccc3ccccc13)CCCC2
t

###

studySystem: Adenosine receptor A1 (Homo sapiens)
testDetails: Percent change in cAMP content of CHO (Chinese hamster ovary) cells expressing human Adenosine A1 receptor at 10 uM
Format: functional, cell-based
propertyName: Change (%)
// note: answer is a bare numeric in %

# example entries with known answers
substanceSmiles | Change / %
Nc1sc2c(c1C(=O)c1ccc3ccccc3c1)CCN(Cc1cccnc1)C2 | 56
Nc1sc2c(c1C(=O)c1ccc(Cl)c3ccccc13)CCC2 | -55
Nc1sc2c(c1C(=O)c1ccc3ccccc3c1)CCCC2 | -42

Return the recorded Change value; entry: Nc1sc2c(c1C(=O)c1ccc3ccccc3c1)CCN(Cc1cccc(Cl)c1)C2
-3

Return the recorded Change value; entry: Cc1sc(N)c(C(=O)c2ccc3c(c2)Cc2ccccc2-3)c1C
-19

Return the recorded Change value; entry: Cc1cc(C(=O)c2c(N)sc3c2CCC3)cc2ccc(Cl)cc12
-17

Return the recorded Change value; entry: COc1ccc(CN2CCc3c(sc(N)c3C(=O)c3ccc4ccccc4c3)C2)c(OC)c1OC
5

Return the recorded Change value; entry: Nc1sc2ccccc2c1C(=O)c1cccc2ccccc12
-37

Return the recorded Change value; entry: Nc1sc2c(c1C(=O)c1ccc3ccccc3c1)CCC2
-51

Return the recorded Change value; entry: Nc1sc2c(c1C(=O)c1ccc(Cl)c3ccccc13)CCCC2
-44

Return the recorded Change value; entry: Nc1sc2c(c1C(=O)c1ccc(Br)c3ccccc13)CCN(Cc1ccccc1)C2
-42

Return the recorded Change value; entry: Cc1sc(N)c(C(=O)c2ccc(C)c3ccccc23)c1C
-51

Return the recorded Change value; entry: Nc1sc2c(c1C(=O)c1cccc3ccccc13)CCCC2
-52

###

studySystem: Adenosine receptor A1 (Homo sapiens)
testDetails: Percent change in cAMP content of CHO (Chinese hamster ovary) cells expressing human Adenosine A1 receptor at 0.1 uM
Assay type: functional, cell-based
propertyName: Change (%)
// note: answer is a bare numeric in %

# example entries with known answers
molecule | studySystem | Change [%]
COc1ccc(C(=O)c2c(N)sc3c2CCC3)c2ccccc12 | Adenosine receptor A1 (Homo sapiens) | -3
Nc1sc2c(c1C(=O)c1cccc3ccccc13)CCC2 | Adenosine receptor A1 (Homo sapiens) | -6
COc1ccc(CN2CCc3c(sc(N)c3C(=O)c3ccc4ccccc4c3)C2)c(OC)c1OC | Adenosine receptor A1 (Homo sapiens) | -1

Return the recorded Change value; entry: Cc1cc(C(=O)c2c(N)sc3c2CCCC3)cc2ccccc12
-9

Return the recorded Change value; entry: Cc1cc(C(=O)c2c(N)sc3c2CCCC3)cc2ccc(Cl)cc12
1

Return the recorded Change value; entry: Nc1sc2c(c1C(=O)c1ccc3c(c1)Cc1ccccc1-3)CCN(Cc1ccccc1)C2
-7

Return the recorded Change value; entry: Cc1ccc(C(=O)c2c(N)sc3c2CCCC3)c2ccccc12
13
